- test_summary: Steady-state plasma LPV pharmacokinetics with and without African potato
- Type: in vivo, human
- stated_conditions: human, plasma, oral, Ctrough, geometric mean, plasma LPV, steady state, day 21; LPV/r plus African potato; n = 16
measured_quantity: concentration at 12 h (ng/mL)
Numbers only; they are read as ng/mL.

Please fill in: concentration at 12 h reported for Cc1cccc(C)c1OCC(=O)N[C@@H](Cc1ccccc1)[C@@H](O)C[C@H](Cc1ccccc1)NC(=O)[C@H](C(C)C)N1CCCNC1=O = 4380

---

- test_summary: Steady-state plasma LPV pharmacokinetics with and without African potato
- Assay type: in vivo, human
- stated_conditions: human, plasma, oral, Ctrough, arithmetic mean (SD), plasma LPV, steady state, day 21; LPV/r plus African potato; n = 16
measured_quantity: concentration at 12 h (ng/mL)
Numbers only; they are read as ng/mL.

Please fill in: concentration at 12 h reported for Cc1cccc(C)c1OCC(=O)N[C@@H](Cc1ccccc1)[C@@H](O)C[C@H](Cc1ccccc1)NC(=O)[C@H](C(C)C)N1CCCNC1=O = 4900

---

- test_summary: Steady-state plasma LPV pharmacokinetics with and without African potato
- Assay type: in vivo, human
- stated_conditions: human, plasma, oral
measured_quantity: Cmax

Please fill in: Cmax reported for Cc1cccc(C)c1OCC(=O)N[C@@H](Cc1ccccc1)[C@@H](O)C[C@H](Cc1ccccc1)NC(=O)[C@H](C(C)C)N1CCCNC1=O = 10100 ng/mL

---

- test_summary: Steady-state plasma LPV pharmacokinetics with and without African potato
- Format: in vivo, human
- stated_conditions: human, plasma, oral, Ctrough, arithmetic mean (SD), plasma LPV, steady state, day 14; LPV/r alone; n = 16
measured_quantity: concentration at 12 h
Just so you know, I need the unit written after the number.

Please fill in: concentration at 12 h reported for Cc1cccc(C)c1OCC(=O)N[C@@H](Cc1ccccc1)[C@@H](O)C[C@H](Cc1ccccc1)NC(=O)[C@H](C(C)C)N1CCCNC1=O = 4850 ng/mL

---

- test_summary: Steady-state plasma LPV pharmacokinetics with and without African potato
- Format: in vivo, human
- stated_conditions: human, plasma, oral, AUCτ, arithmetic mean (SD), plasma LPV, steady state, day 21; LPV/r 400/100 mg twice daily plus African potato four capsules once daily for 7 days; n = 16
measured_quantity: AUC (ng·h/mL)
Numbers only; they are read as ng·h/mL.

Please fill in: AUC reported for Cc1cccc(C)c1OCC(=O)N[C@@H](Cc1ccccc1)[C@@H](O)C[C@H](Cc1ccccc1)NC(=O)[C@H](C(C)C)N1CCCNC1=O = 93200
